Protein target, amino acids: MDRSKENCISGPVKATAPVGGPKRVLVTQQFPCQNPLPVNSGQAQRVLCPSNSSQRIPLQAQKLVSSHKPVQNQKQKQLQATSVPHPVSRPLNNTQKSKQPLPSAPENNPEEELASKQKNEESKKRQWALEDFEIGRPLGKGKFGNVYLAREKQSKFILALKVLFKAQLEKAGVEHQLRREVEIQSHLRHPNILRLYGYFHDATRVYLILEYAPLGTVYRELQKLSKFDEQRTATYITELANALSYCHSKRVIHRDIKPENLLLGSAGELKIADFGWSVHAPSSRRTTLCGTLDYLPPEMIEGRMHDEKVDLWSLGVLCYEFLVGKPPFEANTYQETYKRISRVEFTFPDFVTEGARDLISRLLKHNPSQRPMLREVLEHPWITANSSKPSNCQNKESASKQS
METRIC: IC50 (nM)

1 = O=C(Nc1ccccc1Nc1nc(Nc2ccc(N3CCOCC3)cc2)ncc1Cl)c1ccccc1
2 = O=C(Nc1ccccc1Nc1nc(Nc2ccc(-n3cccc3)cc2)ncc1Cl)C1CC1
Returns the identifier with the smallest measured IC50 among 1 and 2 . Kindly give the label for the entry you pick.
2
